Hey, just so you know, these numbers are from the supplement of paper PMC11208160.

Assay: recombinant UMI read abundance after kanamycin selection (control-corrected) (log10(CPM+1)); higher = more efficient recombination; extreme values may be limits of the assay; sequences stand for … in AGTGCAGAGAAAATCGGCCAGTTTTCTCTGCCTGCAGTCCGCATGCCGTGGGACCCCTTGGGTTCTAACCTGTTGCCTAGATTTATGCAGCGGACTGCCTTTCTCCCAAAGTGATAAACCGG…AGGTTGGTTTCACT; site = the 11-nt donor;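 note: IS621 bridge recombinase in Escherichia coli cells against a fixed T5 target plasmid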
Each entry below carries its reported recombinant UMI read abundance (log10).
// return just the number, without any unit appended

Before answering, review these 5 worked examples.
Exam item: What value of measured recombinant UMI read abundance (log10) is listed for CCCATATCATGGACCGGTTTTCCCGGTAATCCGTATTTGTC (site CCCAGATCTGA) ?
Marked response: 0

Exam item: What value of measured recombinant UMI read abundance (log10) is listed for TGTACAACATGGACCGGTTTTCCCGGTAATCCGTATTTGAC (site TGTACATCTGT) ?
Marked response: 0.295

Exam item: What value of measured recombinant UMI read abundance (log10) is listed for CTCTAGACATGGACCGGTTTTCCCGGTAATCCGTATTTGCT (site CTCTAGACTAG) ?
Marked response: 0.576

Exam item: What value of measured recombinant UMI read abundance (log10) is listed for ACAGACCCATGGACCGGTTTTCCCGGTAATCCGTATTTGCC (site ACAGACCCTGG) ?
Marked response: 1.2

Exam item: What value of measured recombinant UMI read abundance (log10) is listed for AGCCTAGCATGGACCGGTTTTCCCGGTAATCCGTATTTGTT (site AGCCTAGCTAG) ?
Marked response: 0

Next:
Exam item: What value of measured recombinant UMI read abundance (log10) is listed for TGGAATACATGGACCGGTTTTCCCGGTAATCCGTATTTGTG (site TGGAATACTCA) ?
Marked response: 1.12

Exam item: What value of measured recombinant UMI read abundance (log10) is listed for GAGCTCTCATGGACCGGTTTTCCCGGTAATCCGTATTTGAT (site GAGCTCGCTAT) ?
Marked response: 0.0051

Exam item: What value of measured recombinant UMI read abundance (log10) is listed for CATCAGCCATGGACCGGTTTTCCCGGTAATCCGTATTTGAG (site CATCAGCCTCT) ?
Marked response: 0.441

Exam item: What value of measured recombinant UMI read abundance (log10) is listed for AATGTGTCATGGACCGGTTTTCCCGGTAATCCGTATTTGAC (site AATGTGCCTGT) ?
Marked response: 0

###

Experiment: recombinant UMI read abundance after kanamycin selection (control-corrected) (log10(CPM+1)); higher = more efficient recombination; extreme values may be limits of the assay; sequences stand for … in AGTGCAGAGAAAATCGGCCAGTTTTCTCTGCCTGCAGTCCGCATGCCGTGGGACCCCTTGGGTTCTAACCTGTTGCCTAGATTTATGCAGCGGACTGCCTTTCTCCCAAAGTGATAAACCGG…AGGTTGGTTTCACT; site = the 11-nt donor
Each entry below carries its reported recombinant UMI read abundance (log10).
// return just the number, without any unit appended

Exam item: What value of measured recombinant UMI read abundance (log10) is listed for TAGCACGCATGGACCGGTTTTCCCGGTAATCCGTATTTGGG (site CAGCACGCTCC) ?
Marked response: 0.00759

Exam item: What value of measured recombinant UMI read abundance (log10) is listed for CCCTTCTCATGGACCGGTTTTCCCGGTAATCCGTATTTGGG (site CCCTCCTCTCC) ?
Marked response: 0.0129

Next:
Exam item: What value of measured recombinant UMI read abundance (log10) is listed for TGCGAGGCATGGACCGGTTTTCCCGGTAATCCGTATTTGGT (site TGCCAGGCTAC) ?
Marked response: 0.0134

Exam item: What value of measured recombinant UMI read abundance (log10) is listed for AATTCTGCATGGACCGGTTTTCCCGGTAATCCGTATTTGGA (site AATTTTGCTTC) ?
Marked response: 0.00758

Exam item: What value of measured recombinant UMI read abundance (log10) is listed for GCCGTACCATGGACCGGTTTTCCCGGTAATCCGTATTTGTT (site GCCGTACCTAA) ?
Marked response: 0.0103

Exam item: What value of measured recombinant UMI read abundance (log10) is listed for CTGCCTACATGGACCGGTTTTCCCGGTAATCCGTATTTGAG (site CTACCTACTCT) ?
Marked response: 1.04

Exam item: What value of measured recombinant UMI read abundance (log10) is listed for GGGAATACATGGACCGGTTTTCCCGGTAATCCGTATTTGTT (site GGGAATACTAA) ?
Marked response: 1.29

###

Experiment: recombinant UMI read abundance after kanamycin selection (control-corrected) (log10(CPM+1)); higher = more efficient recombination; extreme values may be limits of the assay; sequences stand for … in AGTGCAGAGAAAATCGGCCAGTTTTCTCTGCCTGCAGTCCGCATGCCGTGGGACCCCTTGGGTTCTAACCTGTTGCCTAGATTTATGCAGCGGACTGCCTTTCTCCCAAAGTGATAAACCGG…AGGTTGGTTTCACT; site = the 11-nt donor
Each entry below carries its reported recombinant UMI read abundance (log10).
// return just the number, without any unit appended

Before answering, review these 10 worked examples.
Exam item: What value of measured recombinant UMI read abundance (log10) is listed for TGTTAGGCATGGACCGGTTTTCCCGGTAATCCGTATTTGGT (site TGATAGGCTAC) ?
Marked response: 0.0087

Exam item: What value of measured recombinant UMI read abundance (log10) is listed for CTCCCTACATGGACCGGTTTTCCCGGTAATCCGTATTTGAT (site CTCCCTACTCT) ?
Marked response: 0.00726

Exam item: What value of measured recombinant UMI read abundance (log10) is listed for GAGCTCCCATGGACCGGTTTTCCCGGTAATCCGTATTTGAT (site GAGCTCCCTAT) ?
Marked response: 1.07

Exam item: What value of measured recombinant UMI read abundance (log10) is listed for TGTACAACATGGACCGGTTTTCCCGGTAATCCGTATTTGAC (site TGTACAACTGT) ?
Marked response: 0.315

Exam item: What value of measured recombinant UMI read abundance (log10) is listed for GTATGCACATGGACCGGTTTTCCCGGTAATCCGTATTTGGA (site GTATGCACTTA) ?
Marked response: 0.901

Exam item: What value of measured recombinant UMI read abundance (log10) is listed for CTCCAAACATGGACCGGTTTTCCCGGTAATCCGTATTTGGC (site CTCCAAACTGC) ?
Marked response: 0

Exam item: What value of measured recombinant UMI read abundance (log10) is listed for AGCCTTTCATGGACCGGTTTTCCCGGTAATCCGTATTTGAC (site AGCATTTCTGT) ?
Marked response: 0.00674

Exam item: What value of measured recombinant UMI read abundance (log10) is listed for CGCAATCCATGGACCGGTTTTCCCGGTAATCCGTATTTGTT (site CGGAATCCTAA) ?
Marked response: 0

Exam item: What value of measured recombinant UMI read abundance (log10) is listed for GCGGGCACATGGACCGGTTTTCCCGGTAATCCGTATTTGTG (site GCGGGCACTCA) ?
Marked response: 0.836

Exam item: What value of measured recombinant UMI read abundance (log10) is listed for GGACTCACATGGACCGGTTTTCCCGGTAATCCGTATTTGCA (site GGACTCACTTG) ?
Marked response: 2.37

Next:
Exam item: What value of measured recombinant UMI read abundance (log10) is listed for TCAAATGCATGGACCGGTTTTCCCGGTAATCCGTATTTGCC (site TCAAATGCTGG) ?
Marked response: 0

###

Test: recombinant UMI read abundance after kanamycin selection (control-corrected) (log10(CPM+1)); higher = more efficient recombination; extreme values may be limits of the assay; sequences stand for … in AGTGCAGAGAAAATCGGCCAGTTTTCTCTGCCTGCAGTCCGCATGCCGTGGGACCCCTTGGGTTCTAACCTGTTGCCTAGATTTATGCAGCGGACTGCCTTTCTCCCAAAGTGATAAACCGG…AGGTTGGTTTCACT; site = the 11-nt donor
QUANTITY MEASURED: recombinant UMI read abundance (log10)
// return just the number, without any unit appended

Exam item: What value of measured recombinant UMI read abundance (log10) is listed for GATAGGACATGGACCGGTTTTCCCGGTAATCCGTATTTGAC (site GATGGGACTGT) ?
Marked response: 0.531

Exam item: What value of measured recombinant UMI read abundance (log10) is listed for TACTTCTCATGGACCGGTTTTCCCGGTAATCCGTATTTGTT (site TACTTCTCTAA) ?
Marked response: 1.35

Exam item: What value of measured recombinant UMI read abundance (log10) is listed for CTTCTCTCATGGACCGGTTTTCCCGGTAATCCGTATTTGCA (site CTTCTCTCTTA) ?
Marked response: 0.866

Exam item: What value of measured recombinant UMI read abundance (log10) is listed for TACTTGACATGGACCGGTTTTCCCGGTAATCCGTATTTGCG (site TACTTGACTGG) ?
Marked response: 0

Exam item: What value of measured recombinant UMI read abundance (log10) is listed for CGATCCTCATGGACCGGTTTTCCCGGTAATCCGTATTTGGT (site CGATCCTCTAC) ?
Marked response: 1.74

Exam item: What value of measured recombinant UMI read abundance (log10) is listed for CGACCCACATGGACCGGTTTTCCCGGTAATCCGTATTTGGT (site CGACCCACTAC) ?
Marked response: 1.23

Exam item: What value of measured recombinant UMI read abundance (log10) is listed for GCGAAACCATGGACCGGTTTTCCCGGTAATCCGTATTTGCT (site GCGAAATCTAG) ?
Marked response: 0

Exam item: What value of measured recombinant UMI read abundance (log10) is listed for AGCCTTTCATGGACCGGTTTTCCCGGTAATCCGTATTTGAA (site AGCCTTTCTCT) ?
Marked response: 0.00501

Exam item: What value of measured recombinant UMI read abundance (log10) is listed for TCGTACTCATGGACCGGTTTTCCCGGTAATCCGTATTTGCA (site TCCTACTCTTG) ?
Marked response: 2.28
